For each entry below, report its ABSOLUTE MONOCYTE value.
organism: Rattus norvegicus; test: DrugMatrix - Regimen: Daily Repeat; assay type: toxicity, organism-based, Sprague-Dawley; design: regimen Daily Repeat, gender Male, age 6-8 weeks; details: in vivo, po, 0 mg/kg, 120 h, tissue Blood, route oral GAVAGE, dose level Control, time 5 day, vehicle 100 % WATER
One number for each entry, in CELLS/uL.

Use the examples below as a reference point.
# Compound, ABSOLUTE MONOCYTE (CELLS/uL)
records = [
    ("c1ccc([C@H]2CN3CCSC3=N2)cc1 [LEVAMISOLE]", 158),
    ("CC(O)CO (centres undefined) [PROPYLENE GLYCOL]", 205.33),
    ("Cn1cc[nH]c1=S [METHIMAZOLE]", 69.67),
]

Provide reported ABSOLUTE MONOCYTE for each item, in the same order as listed.
1. COc1cc2nc(N3CCN(C(=O)C4COc5ccccc5O4)CC3)nc(N)c2cc1OC (centres undefined) [DOXAZOSIN]
2. Clc1cccc(Cl)c1N=C1NCCN1 [CLONIDINE]
3. C[C@H]1c2cccc(O)c2C(=O)C2=C(O)[C@]3(O)C(=O)C(C(N)=O)=C(O)[C@@H](N(C)C)[C@@H]3[C@@H](O)[C@@H]21.O [DOXYCYCLINE]
4. N[C@@H](Cc1ccc(O)c(O)c1)C(=O)O [LEVODOPA]
5. Cc1onc(-c2ccccc2Cl)c1C(=O)N[C@@H]1C(=O)N2[C@@H]1SC(C)(C)[C@@H]2C(=O)O [CLOXACILLIN]
6. CNNCc1ccc(C(=O)NC(C)C)cc1 [PROCARBAZINE]
7. C[C@H](CS)C(=O)N1CCC[C@H]1C(=O)O [CAPTOPRIL]
8. C=CCC1(C(C)CCC)C(=O)NC(=O)NC1=O (centres undefined) [SECOBARBITAL]

Given back:
1. 131.33
2. 92.33
3. 131.33
4. 131.33
5. 205.33
6. 15.83
7. 180.83
8. 58.33

Kindly give each listed record's ABSOLUTE MONOCYTE.
1. C[C@](N)(Cc1ccc(O)c(O)c1)C(=O)O [METHYLDOPA]
2. CN(C)CCCN1c2ccccc2Sc2ccc(Cl)cc21 [CHLORPROMAZINE]
3. NCCCCCC(=O)O [AMINOCAPROIC ACID]

Given back:
[465.5, 182, 205.33]

----------
species on record: Rattus norvegicus; assay: DrugMatrix - Regimen: Daily Repeat; type: toxicity, organism-based, Sprague-Dawley; design: regimen Daily Repeat, gender Male, age 6-8 weeks; settings: in vivo, iv, 0 mg/kg, 72 h, tissue Plasma, dose level Control, time 3 day, vehicle 100 % SALINE
Starred links: 1 amine or outer side, 2 acyl side, 3 side chain; linkers in the order of their positions; H or OH if unused. Positions of bridges follow the written chain, without caps; N, C: chain ends. Non-standard residues stand in square brackets, D forms with d. Residues, ends and D or L forms follow the SMILES beside them. Chains are numbered I, II in the order given. Actinocin(9to1) = Cc1c2oc3c(C)ccc(C(=O)[*:1])c3nc-2c(C(=O)[*:2])c(N)c1=O; NMeV = CN[C@H](C(=O)O)C(C)C; Sar = CNCC(=O)O
Measured Endpoint: ASPARTATE AMINOTRANSFERASE (u/L)
Give bare numbers, in u/L.

Look over these answered cases.
# Compound, Unit Of Measurement, ASPARTATE AMINOTRANSFERASE
rows = [
    ("Cc1ccc(N(CC2=NCCN2)c2cccc(O)c2)cc1 [PHENTOLAMINE]", "u/L", 72.5),
    ("CC[C@]1(O)C[C@H]2CN(CCc3c([nH]c4ccccc34)[C@@](C(=O)OC)(c3cc4c(cc3OC)N(C=O)[C@H]3[C@@](O)(C(=O)OC)[C@H](OC(C)=O)[C@]5(CC)C=CCN6CC[C@]43[C@@H]65)C2)C1 [VINCRISTINE]", "u/L", 82.33),
    ("Cc1c2oc3c(C)ccc(C(=O)N[C@@H]4C(=O)N[C@H](C(C)C)C(=O)N5CCC[C@H]5C(=O)N(C)CC(=O)N(C)[C@@H](C(C)C)C(=O)O[C@@H]4C)c3nc-2c(C(=O)N[C@@H]2C(=O)N[C@H](C(C)C)C(=O)N3CCC[C@H]3C(=O)N(C)CC(=O)N(C)[C@@H](C(C)C)C(=O)O[C@@H]2C)c(N)c1=O [DACTINOMYCIN] (I: T[dV]P[Sar][NMeV] / II: T[dV]P[Sar][NMeV]; ester I:1-I:C, II:1-II:C; linker I:N-II:N via Actinocin(9to1))", "u/L", 89.33),
]

Asked: Entry COc1cc2c3cc1Oc1cc(ccc1O)C[C@@H]1c4c(cc(OC)c(O)c4Oc4ccc(cc4)C[C@@H]3N(C)CC2)CC[N+]1(C)C.[Cl-] needs its ASPARTATE AMINOTRANSFERASE filled in; supply it.
Given back: 116.83
